read-out: Tumor necrosis factor receptor superfamily member 6 (Homo sapiens); assay: LTEA_HepaRG_FAS: Life Technologies and Expression Analysis (LTEA) Assay for Fas cell surface death receptor (FAS) using HepaRG (AID 2283447); conditions: mRNA level, 48 h; actives raise or lower the signal
Activity calls are given as the source filed them. Rule for the calls: active = hit-call score of the fitted dose curve at least 0.9, where 1 is the maximum; inactive = score below 0.9.
Pick from active, inactive when you respond.

# example entries with known answers
* CC(C)CCCCCCCOC(=O)CCCCC(=O)OCCCCCCCC(C)C | inactive
* CC(C)CCCCCCOC(=O)c1ccc(C(=O)OCCCCCCC(C)C)c(C(=O)OCCCCCCC(C)C)c1 | inactive
* CNCc1ccc(NC(=O)c2c[nH]c3c2C(=O)CCC3)cc1 | inactive
* Cc1ccc(O)cc1 | inactive

Query: Just curious, what result did Cc1ccc(N)cc1O get here?
Response: inactive

Query: Just curious, what result did COCCOCCOCCOC get here?
Response: inactive

Query: Just curious, what result did CCNc1ccccc1 get here?
Response: inactive

Query: Just curious, what result did NC(=O)NO get here?
Response: inactive

Query: Just curious, what result did O=C(O)c1cc(N=Nc2ccc(S(=O)(=O)Nc3ccccn3)cc2)ccc1O get here?
Response: inactive

Query: Just curious, what result did O=C(CCCCCCCCc1cccnc1)N1CCC(C=C(c2ccccc2)c2ccccc2)CC1 get here?
Response: active

Query: Just curious, what result did CC(C)=CCCC(C)=CC=O get here?
Response: inactive

Query: Just curious, what result did CCCCCCCCCCCCc1ccccc1 get here?
Response: inactive

Query: Just curious, what result did COc1cccc(-c2ccc(/C=C\CN3CCCCCC3)cc2Cl)c1 get here?
Response: active

* * *

assay: CCTE_Mundy_HCI_Cortical_Synap_Neur_Matur_SynapseCount: CCTE's Synaptogenesis and Neurite Maturation Assay in rat cortical cells for Synapse Count, Mundy Lab (AID 2284218)
The source made the active and inactive calls. How the source made its calls: active means hit-call score of the fitted dose curve at least 0.9, where 1 is the maximum; inactive means score below 0.9.
readout.type: AC50

* CC[C@H]1OC(=O)[C@H](C)[C@@H](O[C@H]2C[C@@](C)(OC)[C@@H](O)[C@H](C)O2)[C@H](C)[C@@H](O[C@@H]2O[C@H](C)C[C@H](N(C)C)[C@H]2O)[C@](C)(O)C[C@@H](C)C(=O)[C@H](C)[C@@H](O)[C@]1(C)O | inactive
* O=P(OC(CCl)CCl)(OC(CCl)CCl)OC(CCl)CCl | 2.98 µM (active)
* O=C1CCC(N2C(=O)c3ccccc3C2=O)C(=O)N1 (centres undefined) | inactive
* NC(=O)NO | inactive

* * *

test: Tanguay_ZF_120hpf_OTIC_legacy: (Legacy) Oregon State University Tanguay Lab 120 Hour Post-fertilization zebrafish Assay for Otic Vesicle Malformation (AID 2283639)
Inconclusive results are not listed. The source made the active and inactive calls. The calls were made as follows: active = hit-call score of the fitted dose curve at least 0.9, where 1 is the maximum; inconclusive = response in the unintended direction; inactive = score below 0.9.
readout.type: outcome

Here is how some molecules turned out for outcome.
- Cc1ccc(N)cc1O: inactive
- O=C1OC(=O)C2C3C=CC(C3)C12 (stereo not given): inactive
- CC(C)CCCCCCCOC(=O)CCCCC(=O)OCCCCCCCC(C)C: inactive
- CC(O)CN(CCN(CC(C)O)CC(C)O)CC(C)O (stereo not given): inactive
- CCCCCCCCCCCCc1ccccc1: inactive
- COC(=O)c1ccccc1O: inactive
- C1N2CN3CN1CN(C2)C3: inactive
- CCCCCCc1ccc(O)cc1O: inactive

I'm hoping you can list outcome for every molecule here, please.
1. CC(C)=CCCC(C)CCO (stereo not given)
2. CCN(C(=O)c1cc(C)cc(OC[C@H](C)Nc2ccncc2)c1)C(C)C
3. NC(=O)NO

Response:
1: inactive; 2: inactive; 3: inactive

I'm hoping you can list outcome for every molecule here, please.
1. CC(C)=CCC/C(C)=C/CO
2. CCCCC(CC)COC(=O)CCCCCCCCC(=O)OCC(CC)CCCC (stereo not given)
3. CC(C)=CCC/C(C)=C\CO
4. CC(C)CC(C)(O)C#CC(C)(O)CC(C)C (stereo not given)

Response:
1. inactive
2. inactive
3. inactive
4. inactive

* * *

molecular target: rat Glutamate, AMPA Site (AMPA), Gria1 (gene 50592) (UniProt P19490); assay: NVS_LGIC_rAMPA: NovaScreen (NVS) Ligand-Gated Ion Channel Assay for rat Glutamate, AMPA Site (AMPA) (AID 2283324)
Sequence (P19490 whole entry, looked up): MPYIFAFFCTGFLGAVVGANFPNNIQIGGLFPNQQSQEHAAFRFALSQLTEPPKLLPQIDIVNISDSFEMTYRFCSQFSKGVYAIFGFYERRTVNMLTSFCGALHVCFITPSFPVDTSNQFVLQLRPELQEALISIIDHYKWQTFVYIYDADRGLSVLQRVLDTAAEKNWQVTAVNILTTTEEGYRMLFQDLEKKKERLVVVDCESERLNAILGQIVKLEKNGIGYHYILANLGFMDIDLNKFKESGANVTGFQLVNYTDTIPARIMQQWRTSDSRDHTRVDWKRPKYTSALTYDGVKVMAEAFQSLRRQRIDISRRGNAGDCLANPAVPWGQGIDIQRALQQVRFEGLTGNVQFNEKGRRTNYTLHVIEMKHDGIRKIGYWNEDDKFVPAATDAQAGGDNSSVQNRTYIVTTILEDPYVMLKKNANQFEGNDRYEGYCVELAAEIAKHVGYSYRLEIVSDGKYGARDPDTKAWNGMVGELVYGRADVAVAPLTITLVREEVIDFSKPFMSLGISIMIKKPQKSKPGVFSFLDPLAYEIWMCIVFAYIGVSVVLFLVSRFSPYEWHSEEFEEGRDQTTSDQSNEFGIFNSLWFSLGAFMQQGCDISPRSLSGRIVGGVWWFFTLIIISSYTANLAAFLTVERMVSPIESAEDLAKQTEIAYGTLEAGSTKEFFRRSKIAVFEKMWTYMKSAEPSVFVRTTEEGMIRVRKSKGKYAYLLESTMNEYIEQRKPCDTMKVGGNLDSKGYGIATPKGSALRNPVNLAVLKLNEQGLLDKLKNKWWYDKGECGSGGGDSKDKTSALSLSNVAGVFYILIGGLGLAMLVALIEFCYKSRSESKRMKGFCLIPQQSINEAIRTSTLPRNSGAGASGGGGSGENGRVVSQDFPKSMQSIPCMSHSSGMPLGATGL
Inconclusive results are not listed. Calls of active or inactive are those of the source. The calls were made as follows: active = hit-call score of the fitted dose curve at least 0.9, where 1 is the maximum; inconclusive = response in the unintended direction; inactive = score below 0.9.
readout.type: AC50

• CNCc1ccc(NC(=O)c2c[nH]c3c2C(=O)CCC3)cc1 = inactive
• O=C(OC[C@H]1O[C@@H](OC(=O)c2cc(O)c(O)c(OC(=O)c3cc(O)c(O)c(O)c3)c2)[C@H](OC(=O)c2cc(O)c(O)c(OC(=O)c3cc(O)c(O)c(O)c3)c2)[C@@H](OC(=O)c2cc(O)c(O)c(OC(=O)c3cc(O)c(O)c(O)c3)c2)[C@@H]1OC(=O)c1cc(O)c(O)c(OC(=O)c2cc(O)c(O)c(O)c2)c1)c1cc(O)c(O)c(OC(=O)c2cc(O)c(O)c(O)c2)c1 = 9.44 µM (active)
• Cn1c(=O)cc(Oc2ccc(F)cc2F)c2cnc(NCC(C)(C)O)nc21 = inactive
• O=C(O)CC(O)C(=O)O (centres undefined) = inactive

* * *

read-out: BCL2L11 (gene 10018); assay: LTEA_HepaRG_BCL2L11: Life Technologies and Expression Analysis (LTEA) Assay for Bcl-2 (BCL2L11) gene using HepaRG (AID 2283473); settings: mRNA level, 48 h; actives raise or lower the signal
Active and inactive are the calls of the source. Rule for the calls: active = hit-call score of the fitted dose curve at least 0.9, where 1 is the maximum; inactive = score below 0.9.
Pick from active, inactive when you respond.

* CC1=CC(=O)CC(C)(C)C1 | inactive
* CC(C)=CCCC(C)CCO (stereo not given) | inactive
* CCn1nc(Cc2ccccc2)cc1C1CCN(C[C@H]2C[C@H](N(C)[C@@H](C(=O)O)C(C)C)C[C@@H]2c2cccc(F)c2)CC1 | inactive
* CCCN(C1CCN(C(=O)C2CCNCC2)CC1)[C@@H]1CCc2ccc(OC)cc2C1 | inactive

Query: Just curious, what result did CN(C)c1ccc(N=NS(=O)(=O)O)cc1 get here?
Response: inactive

Query: Just curious, what result did Cc1[nH]cnc1C[C@H]1CCc2c(C)c3ccccc3n2C1=O get here?
Response: active

Query: Just curious, what result did O=C(O)CC(O)C(=O)O (stereo not given) get here?
Response: inactive

Query: Just curious, what result did CC[C@H]1OC(=O)[C@H](C)[C@@H](O[C@H]2C[C@@](C)(OC)[C@@H](O)[C@H](C)O2)[C@H](C)[C@@H](O[C@@H]2O[C@H](C)C[C@H](N(C)C)[C@H]2O)[C@](C)(O)C[C@@H](C)C(=O)[C@H](C)[C@@H](O)[C@]1(C)O get here?
Response: inactive

Query: Just curious, what result did CCCCCCCCCCCCc1ccccc1 get here?
Response: inactive

Query: Just curious, what result did CCCC(=O)OCC get here?
Response: inactive

* * *

read-out: E-selectin (Homo sapiens); assay: BSK_SAg_Eselectin: BioMAP Diversity Plus: SAg Assay for Eselectin Biomarker Activity (AID 2283091); conditions: primary human HUVEC with PBMC; actives raise or lower the signal
Activity calls are given as the source filed them. How the source made its calls: active means hit-call score of the fitted dose curve at least 0.9, where 1 is the maximum; inactive means score below 0.9.
Pick from 1 (yes) for active, 0 (no) for inactive when you respond.

* CCc1cc(SCc2sc(-c3ccc(C(F)(F)F)cc3)nc2CN2CCN(c3ccc(OC)cc3)CC2)ccc1OCC(=O)O | 1 (yes)

Query: Just curious, what result did COc1ccc(/C=C/S(=O)(=O)NC(=O)c2ccc(C)cc2Cl)cc1 get here?
Response: 0 (no)

Query: Just curious, what result did Nc1ccc(Nc2ccccc2)cc1 get here?
Response: 1 (yes)

* * *

read-out: Potassium channel subfamily K member 1 (KCNK1), KCNK1 (gene 3775); experiment: LTEA_HepaRG_KCNK1: Life Technologies and Expression Analysis (LTEA) Assay for Potassium channel subfamily K member 1 (KCNK1) using HepaRG (AID 2283511); settings: mRNA level, 48 h; actives raise or lower the signal
Active and inactive are the calls of the source. How the source made its calls: active means hit-call score of the fitted dose curve at least 0.9, where 1 is the maximum; inactive means score below 0.9.
Pick from active, inactive when you respond.

# example entries with known answers
• CC(C)=CCCC(C)CCO (configuration not stated) = inactive
• Fc1ccccc1[C@@H](F)COC1CCC(Nc2ncnc3[nH]ncc23)CC1 (some centres not stated) = inactive
• CCCCC(CC)COC(=O)CCCCCCCCC(=O)OCC(CC)CCCC (configuration not stated) = inactive

Query: Just curious, what result did COc1ccc(/C=C/S(=O)(=O)NC(=O)c2ccc(C)cc2Cl)cc1 get here?
Response: inactive

Query: Just curious, what result did CCCCCCCCCCCCc1ccccc1 get here?
Response: inactive

Query: Just curious, what result did C1=CCCC=CCCC=CCC1 get here?
Response: inactive

Query: Just curious, what result did CCCCCCCCO get here?
Response: active

* * *

read-out: Interferon-gamma inducible Protein 10 (IP10), CXCL10 (gene 3627); assay: BSK_hDFCGF_IP10: BioMAP Diversity Plus: hDFCGF Assay for Interferon-gamma inducible Protein 10 (IP10) Biomarker Activity (AID 2283053); conditions: primary human foreskin fibroblasts; actives raise or lower the signal
Activity calls are given as the source filed them. The calls were made as follows: active = hit-call score of the fitted dose curve at least 0.9, where 1 is the maximum; inactive = score below 0.9.
Pick from class 1 = active, class 0 = inactive when you respond.

• CCn1nc(Cc2ccccc2)cc1C1CCN(C[C@H]2C[C@H](N(C)[C@@H](C(=O)O)C(C)C)C[C@@H]2c2cccc(F)c2)CC1 = class 0

Query: Just curious, what result did CC(C)=CCCC(C)=CC=O get here?
Response: class 0

Query: Just curious, what result did CCN(C(=O)c1cc(C)cc(OC[C@H](C)Nc2ccncc2)c1)C(C)C get here?
Response: class 0

Query: Just curious, what result did Cc1ccc(C)c(O)c1 get here?
Response: class 0

Query: Just curious, what result did O=C(O)c1cccc(N(Cc2cccnc2)c2ccc(OC(F)F)c(OC(F)F)c2)c1 get here?
Response: class 0

Query: Just curious, what result did O=C(OC[C@H]1O[C@@H](OC(=O)c2cc(O)c(O)c(OC(=O)c3cc(O)c(O)c(O)c3)c2)[C@H](OC(=O)c2cc(O)c(O)c(OC(=O)c3cc(O)c(O)c(O)c3)c2)[C@@H](OC(=O)c2cc(O)c(O)c(OC(=O)c3cc(O)c(O)c(O)c3)c2)[C@@H]1OC(=O)c1cc(O)c(O)c(OC(=O)c2cc(O)c(O)c(O)c2)c1)c1cc(O)c(O)c(OC(=O)c2cc(O)c(O)c(O)c2)c1 get here?
Response: class 1
